Attribution: PubChem BioAssay AID2685

Assay: qHTS Assay for Lipid Storage Modulators in Drosophila S3 Cells;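 further: cells counted by Cell Tracker Red CMTPX staining in the red channel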
Conditions: BODIPY lipid droplet fluorescence, 18-24 h, cells fed with added oleic acid; measured here: cell count max response
Hit rate of the full screen: of about 320,000 compounds, about 2,100 (0.66%) were called active. Not shown: some 53% with an inconclusive outcome. This excerpt belongs to a sample that is enriched for actives.
Parameter: cell number change. Scope: all listed entries.
# number only, unit % dropped from output

Completed entries (count: 4):
compound=Cn1c(C(=O)Nc2ccccc2)cc2sccc21 numeric_result=-17.5
compound=CCOc1c(CNc2nnnn2C)cccc1OC numeric_result=15.4
compound="COc1ccc(N(C(=O)Cc2cccs2)C(C(=O)NC2CCCC2)c2ccncc2)cc1OC (stereo not drawn)" numeric_result=16.1
compound=CCOC(=O)C1(CC2CC2)CCN(C(=O)c2cc(C3CC3)nc3ccccc23)CC1 numeric_result=-20.4

Dear colleague, I am looking for the recorded cell number change of the following compound: CS(=O)(=O)c1ccccc1C(=O)N(CCc1ccccc1)Cc1ccccc1 -4.69

Field entry: Cc1nnc2n(c1=O)C(CS(=O)(=O)c1ccc3ccccc3c1)CS2 (stereo not drawn) 2.91

Field entry: CCCn1c(/C=N/Nc2nc3ccccc3[nH]2)nc2ccccc21 -13.7

Field entry: O=C(CCS(=O)(=O)c1ccc(F)cc1)Nc1nc(-c2ccncc2)cs1 -16.7

Field entry: CC(C)Cn1c(/C=N/Nc2nc3ccccc3[nH]2)nc2ccccc21 -7.46

Field entry: COCc1cc(CN2CCN(Cc3ccsc3)C(CCO)C2)ccc1OC (stereo not drawn) 9.7

Field entry: Cc1ccccc1C(=O)Nc1ccc2nc3n(c(=O)c2c1)CCCC3 22.5

Field entry: CCCc1c(O)c2ccccc2[nH]c1=O 3.83

Field entry: CN1CCN(C(c2cccnc2)c2ccc3cccnc3c2O)CC1 (stereo not drawn) 8.11

Field entry: COc1ccc(NC(=O)[C@@H](NC(=O)c2ccccc2)C(C)C)cc1S(=O)(=O)N1CCCCC1 -2.25

Field entry: COC(=O)CNC(=O)CSc1nc(N)cc(=O)[nH]1 -9.53

Field entry: CSc1ccccc1OCc1cc(C(=O)N(C)CC2COCCO2)no1 (stereo not drawn) 5.77

Field entry: O=[N+]([O-])c1ccc(S(=O)(=O)CC2CSc3nc4ccccc4n32)cc1 (stereo not drawn) -0.884

Field entry: CCOC(=O)C1(CC2CC2)CCN(C(=O)c2cccnc2C)CC1 26

Field entry: C(=N\Nc1nc2ccccc2[nH]1)/c1ccccc1 -28.7

Field entry: CCCCn1c(SCC(=O)NCc2ccco2)nc2c1c(=O)n(C)c(=O)n2C -2.87

Field entry: Cc1ccc(S(=O)(=O)CCC(=O)Nc2nc(-c3cccnc3)cs2)cc1 -24.9

Field entry: Cc1ccc(S(=O)(=O)CC(=O)Nc2nc(C(C)(C)C)cs2)cc1 18.4

Field entry: CCCOc1cccc(C(=O)N(Cc2ccco2)C2CCS(=O)(=O)C2)c1 (stereo not drawn) -9.39
